B1: tRNA (parent)
chain: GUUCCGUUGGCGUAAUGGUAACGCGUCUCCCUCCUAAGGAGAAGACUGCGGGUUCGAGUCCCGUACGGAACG

Variants of: B1
Experiment: yeast fitness relative to wild type (ratio to wild type); higher = fitter; tRNA-Arg(CCU), competitive growth, 37 C, YPD
Fewer inactive variants are shown than the library holds.
Please respond with reported yeast fitness for every item in the list.
Give bare numbers.

Hi team, please reply with yeast fitness for each item in this list.
1. GUUCCGUUGGCGUAAUGGUAACGCGUCUCCCUCCUAGGGAGAAGACUGCGGGUUCGAGUCCUGUACGGAACG
2. GUUCCGUUGGCGUAAUGGUAACGCGUCUUCUUGCCAAGGAGAAGACUGCGGGUUCGAGUCCCGUACGGAACG

1. 0.864
2. 0.588

Hi team, please reply with yeast fitness for each item in this list.
1. GUACCGUUGGCGUAAUGGUAGCGCGUCUCCCUCCUAAGGAGAAGACUGCGGGUUCGAGUCCCGUACGGACCG
2. GUUCCGUAGGCGUAAUGGUAACGCGUCUCCCUCCUAAGGAGAAGACUCCGGGUUCGAGUCCCGUACGGAACG

1. 1.05
2. 0.761
